Data provenance: patent US20220153746A1

- ASSAY INFO: PK Phase (Group 2): plasma concentrations and pharmacokinetics of Compound 18 and its metabolite Compound 4 after once daily ocular instillation of Compound 18 nanosuspension for 7 days
- Format: in vivo, New Zealand white rabbits
- CONDITION: male, New Zealand white, rabbit, plasma, other: ocular instillation (eye drop), 0.821 mg/kg/day, 1 h; Mean of 4 animals, BQL set to 0; read-out: Day 7 Compound 18 Plasma Concentration
OBSERVABLE: concentration at 1 h (ng/mL)
Supply the numeric figure in ng/mL, leaving out any unit text.

Task item: Provide measured concentration at 1 h value, entry: CCCc1nn(C)c2c(=O)[nH]c(-c3cc(S(=O)(=O)N4CC(CCCO[N+](=O)[O-])C4)ccc3OCC)nc12 [Compound 18]
Reply: 0.15

----------
- ASSAY INFO: TD Phase (Groups 1 and 3): plasma and ocular tissue concentrations and pharmacokinetics of Compound 18 and its metabolite Compound 4 after once daily ocular instillation of Compound 18 nanosuspension for 7 days
- Format: in vivo, New Zealand white rabbits
- CONDITION: male, New Zealand white, rabbit, topical or ocular; Plasma; Day 7; Compound 18 0.8 mg/kg ocular instillation once daily; Groups 1 and 3; read-out: AUC0-8
OBSERVABLE: AUC(0-t)
Please answer using a numeric value trailed by its unit.

Task item: Provide measured AUC(0-t) value, entry: CCCc1nn(C)c2c(=O)[nH]c(-c3cc(S(=O)(=O)N4CC(CCCO)C4)ccc3OCC)nc12 [Compound 4]
Reply: 1.57 ng·h/mL

----------
- ASSAY SYSTEM: human PDE-5A1 (Homo sapiens)
- ASSAY INFO: Human PDE-5A1 inhibition assay (fluorescence polarization, FAM-cGMP)
- Assay type: biochemical
- CONDITION: read-out: IC50 (μM) PDE5A1
OBSERVABLE: IC50

Task item: Provide measured IC50 value, entry: CCCc1nn(C)c2c(=O)[nH]c(-c3cc(S(=O)(=O)N4CC(N(C)CCCO[N+](=O)[O-])C4)ccc3OCC)nc12
Reply: 0.01 to 0.1 µM

Task item: Provide measured IC50 value, entry: CCCc1nn(C)c2c(=O)[nH]c(-c3cc(S(=O)(=O)N4CC(OCCCCO)C4)ccc3OCC)nc12
Reply: 0.01 to 0.1 µM

Task item: Provide measured IC50 value, entry: CCCc1nn(C)c2c(=O)[nH]c(-c3cc(S(=O)(=O)N4CC(CCCOC(=O)CCCCO[N+](=O)[O-])C4)ccc3OCC)nc12
Reply: < 0.01 µM

Task item: Provide measured IC50 value, entry: CCCc1nn(C)c2c(=O)[nH]c(-c3cc(S(=O)(=O)N4CC(CCCO)C4)ccc3OCC)nc12
Reply: < 0.01 µM

Task item: Provide measured IC50 value, entry: CCCc1nc(C)c2c(=O)[nH]c(-c3cc(S(=O)(=O)NC4CN(CCO[N+](=O)[O-])C4)ccc3OCC)nn12
Reply: < 0.01 µM

Task item: Provide measured IC50 value, entry: CCCc1nn(C)c2c(=O)[nH]c(-c3cc(S(=O)(=O)N4CC(N5CC(CO)C5)C4)ccc3OCC)nc12
Reply: < 0.01 µM

Task item: Provide measured IC50 value, entry: CCCc1nc(C)c2c(=O)[nH]c(-c3cc(S(=O)(=O)N4CC(CCO[N+](=O)[O-])C4)ccc3OCC)nn12
Reply: < 0.01 µM

Task item: Provide measured IC50 value, entry: CCCc1nc(C)c2c(=O)[nH]c(-c3cc(S(=O)(=O)N4CC(CCO)C4)ccc3OCC)nn12
Reply: < 0.01 µM

Task item: Provide measured IC50 value, entry: CCCc1nn(C)c2c(=O)[nH]c(-c3cc(S(=O)(=O)NC4CN(CCCO)C4)ccc3OCC)nc12
Reply: 0.01 to 0.1 µM
